# pKd listing for each entry below
Test system: T1, human ICOS-hFc (homodimeric, bivalent) (human, UniProt Q9Y6W8 21-141)
T1 construct: also called hICOS-Fc; hICOS-hFc; not shown: human IgG1 Fc (IgG1 backbone)
T1 sequence: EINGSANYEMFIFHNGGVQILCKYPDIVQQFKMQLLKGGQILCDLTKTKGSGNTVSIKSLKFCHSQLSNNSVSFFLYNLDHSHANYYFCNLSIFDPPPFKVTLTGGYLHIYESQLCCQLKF
Test protocol: BLI, bivalent binding to homodimeric ICOS-Fc
pKd: −log10 of the molar value.

[[record]]
binder = "16G10 (antibody, V domains shown, Armenian hamster monoclonal tested as IgG; also called hamster anti-ICOS 16G10) VH: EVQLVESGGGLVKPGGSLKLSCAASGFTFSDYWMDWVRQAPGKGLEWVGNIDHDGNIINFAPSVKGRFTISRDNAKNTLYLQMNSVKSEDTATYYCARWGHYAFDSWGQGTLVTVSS VL: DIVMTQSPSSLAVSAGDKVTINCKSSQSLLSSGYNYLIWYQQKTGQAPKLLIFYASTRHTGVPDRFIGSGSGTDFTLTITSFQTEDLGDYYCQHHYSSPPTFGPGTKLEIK"
reported_result = "> 12.00"


State its pKd: 35A9 (antibody, V domains shown, Armenian hamster monoclonal tested as IgG; also called hamster anti-ICOS 35A9) VH: EVQLVESGGGLVKPGGSLKLSCAASGFTFSDYWMDWVRQAPGKGLEWVGNIDEDGSIAEYSPFVKGRFTISRDNVKNTLYLQMNSVKSEDTATYYCSRWGRFAFDSWGQGTLVTVSS VL: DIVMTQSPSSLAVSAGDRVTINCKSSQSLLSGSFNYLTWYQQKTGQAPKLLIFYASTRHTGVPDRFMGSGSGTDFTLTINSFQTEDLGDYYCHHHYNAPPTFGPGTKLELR > 12.00
